Data credit: patent US5786358A

Biological target: human monofunctional GARFT (Homo sapiens, UniProt P22102)
Construct: human monofunctional GARFT
Sequence (P22102 810-1010 limits assumed): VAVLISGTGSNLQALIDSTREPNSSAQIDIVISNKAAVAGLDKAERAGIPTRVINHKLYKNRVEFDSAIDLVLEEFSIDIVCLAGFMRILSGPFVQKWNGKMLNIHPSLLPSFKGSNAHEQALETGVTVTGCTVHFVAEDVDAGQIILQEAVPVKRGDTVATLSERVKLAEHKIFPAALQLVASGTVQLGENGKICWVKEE
Experiment: Ki against human monofunctional GARFT
Type: biochemical
Details: tight-binding analysis per Henderson; read-out: Ki inhibition constant against human monofunctional GARFT
Where a name gives a salt, the structure may show the parent alone.
value.type: Ki

compound	target.or.system	value.type	experimental.value
Nc1nc(O)c2c(n1)NCC(CCc1ccc(C(=O)NC(Cc3nn[nH]n3)C(=O)O)s1)C2 (stereo not shown) [Example 13, Diammonium Salt]	human monofunctional GARFT (Homo sapiens, UniProt P22102)	Ki	156 nM
Nc1nc(O)c2c(n1)NCC(CCc1ccc(C(=O)N[C@@H](CCC(=O)N[C@H](CC(=O)O)C(=O)O)C(=O)O)s1)C2 (stereo partly shown) [Example 2]	human monofunctional GARFT (Homo sapiens, UniProt P22102)	Ki	0.244 nM
COC(=O)[C@H](CCS(=O)(=O)O)NC(=O)c1ccc(CCC2CNc3nc(N)nc(O)c3C2)s1 (stereo partly shown) [Example 8]	human monofunctional GARFT (Homo sapiens, UniProt P22102)	Ki	3.5 nM

Inquiry: Record request: Ki value, item CCOC(=O)CC[C@@H](NC(=O)CC[C@H](NC(=O)c1ccc(CCC2CNc3nc(N)nc(O)c3C2)s1)C(=O)OC(C)(C)C)C(=O)OCC (stereo partly shown)
Reply text: 7.7 nM
